Attribution: paper PMC11189301

Target or test system: MIS12 complex with Dsn1 residues 6–113 deleted (Homo sapiens, UniProt Q9H081 1-205; Q6P1K2 1-205; Q9H410 1-356; Q96IY1 1-281, 6–113 residues deleted)
Sequence (Q9H081 whole entry, stated change not applied, chain 1 of 4, the tested form may be a part): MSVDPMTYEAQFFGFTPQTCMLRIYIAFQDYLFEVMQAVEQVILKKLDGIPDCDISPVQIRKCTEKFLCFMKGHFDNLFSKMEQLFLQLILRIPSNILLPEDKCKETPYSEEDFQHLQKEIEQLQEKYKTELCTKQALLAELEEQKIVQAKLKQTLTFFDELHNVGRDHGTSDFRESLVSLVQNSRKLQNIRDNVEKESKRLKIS
Sequence (Q6P1K2 whole entry, stated change not applied, chain 2 of 4, the tested form may be a part): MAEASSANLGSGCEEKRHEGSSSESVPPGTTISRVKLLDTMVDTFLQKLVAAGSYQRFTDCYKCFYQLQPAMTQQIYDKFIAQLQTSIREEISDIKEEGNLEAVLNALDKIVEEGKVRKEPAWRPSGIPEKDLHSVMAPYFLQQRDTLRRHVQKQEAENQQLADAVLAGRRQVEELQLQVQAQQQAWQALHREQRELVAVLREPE
Sequence (Q9H410 other isoform, or with tags, fused parts or gaps 6–113 residues deleted, chain 3 of 4): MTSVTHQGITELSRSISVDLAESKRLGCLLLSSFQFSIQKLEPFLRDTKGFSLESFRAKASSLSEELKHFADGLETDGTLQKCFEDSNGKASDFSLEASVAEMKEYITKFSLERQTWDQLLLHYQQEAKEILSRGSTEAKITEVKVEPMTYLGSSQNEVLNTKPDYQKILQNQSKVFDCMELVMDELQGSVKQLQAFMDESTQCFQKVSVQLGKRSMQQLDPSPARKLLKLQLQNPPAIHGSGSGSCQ
Sequence (Q96IY1 whole entry, stated change not applied, chain 4 of 4, the tested form may be a part): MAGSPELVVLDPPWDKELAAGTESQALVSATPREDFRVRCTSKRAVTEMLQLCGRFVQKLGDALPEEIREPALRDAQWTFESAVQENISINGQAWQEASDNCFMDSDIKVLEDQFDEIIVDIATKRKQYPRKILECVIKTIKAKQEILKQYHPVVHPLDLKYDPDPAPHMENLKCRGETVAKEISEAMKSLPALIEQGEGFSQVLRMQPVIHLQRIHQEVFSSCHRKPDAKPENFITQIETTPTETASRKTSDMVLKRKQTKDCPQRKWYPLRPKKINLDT
Experimental protocol: ITC
Value type: Kd (µM)
The reply should contain only the number, in µM.

Request: Give the value of Kd reported for the following: Ac-RRQSWRRASMKETNRRKSLHPIAW-NH2 (Ala-Trp added for determination of concentration by absorption at 280 nm; source: synthetic peptide (Cambridge Research Biochemicals)) [Dsn1^92–113 auto-inhibitory peptide, wild type]
Result: 4.89
